- assay: physchem
- Description: Dissociation constant of compound was determined
quantity name: pKa
In your answer, state the number alone without any accompanying words.

Return pKa for the following compound: CB(O)c1ccccc1 [PHENYL METHYL BORINIC ACID] 8.1
